Biological target: T1, human interleukin-18 (Homo sapiens, UniProt Q14116)
T1 sequence (Q14116 37-193): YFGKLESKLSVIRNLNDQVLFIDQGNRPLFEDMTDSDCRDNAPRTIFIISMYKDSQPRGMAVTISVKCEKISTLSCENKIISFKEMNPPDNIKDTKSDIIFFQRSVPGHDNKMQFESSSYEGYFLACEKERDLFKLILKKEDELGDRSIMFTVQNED
Assay: Luminex screening: monoclonal antibodies binding on IL-18
Details: IL-18 on Luminex beads
property_measured: Monoclonal antibodies binding on IL-18, Fluorescence intensity

107C6: monoclonal anti-IL-18 antibody; VH SEQ ID NO: 9, VK SEQ ID NO: 10 (antibody, V domains shown, Antibody 107C6 VH sequence; Antibody 107C6 VK sequence) VH: QIQLVQSGPELKKPGETVKLSCRASGYTFTNYGMNWVKQAPGKGLKWMGWINTYSGVPTYADDFKGQFAFSLETSAATAFLQINNLKDEDTATYFCAREGYSTTRSMDYWGQGTSVTVSS VL: DIVMSQSPSSLAVSAGEKVTMSCKSSQSLLDSRTRKNYLVWYQQKPGQSPKLLIYWASTRGSGVPDRFTGSGSGTDFTLTISSVQAEDLAVYYCKQSYNLRTFGGGTKLEIK = 26 250

Moving on to another molecule below.
Which value of Monoclonal antibodies binding on IL-18, Fluorescence intensity has been reported for 108F8: monoclonal anti-IL-18 antibody; VH SEQ ID NO: 11, VK SEQ ID NO: 12 (antibody, V domains shown, Antibody 108F8 VH sequence; Antibody 108F8 VK sequence) VH: QIQLVQSGPDSKKPGETVKLSCRASGYTFTNYGMNWVKQAPGKGLKWMGWINTYSGVPTYADDFKGQFAFSLETSAATAFLQINNLKDEDTATYFCAREGYSTTRSMDYWGQGTSVTVSS VL: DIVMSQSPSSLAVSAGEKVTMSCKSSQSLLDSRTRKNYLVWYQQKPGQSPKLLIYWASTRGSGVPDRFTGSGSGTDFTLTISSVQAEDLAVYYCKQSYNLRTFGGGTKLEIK in the records? 25 126
